- measured-on: T1, ND1 (Bos taurus (bovine), UniProt P03887 1-318)
- T1 construct: ND1, core membrane subunit of respiratory complex I (NADH:ubiquinone oxidoreductase), Bos taurus; endogenous subunit of the purified enzyme; also called subunit ND1
- protocol-summary: cryo-EM structure; bovine complex I purified in LMNG, reconstituted into proteoliposomes (DOPC:DOPE:cardiolipin 8:1:1, ubiquinone-10; 10 mM MOPS-KOH pH 7.5, 50 mM KCl), on graphene oxide grids; closed, open1 and open2 states, outward- and inward-facing; best map CI-out-closed 2.5 Å
- measurement-context: both partners purified
observable: binding result

binder | result
NDUFA1 (natural protein, Bos taurus (bovine), UniProt Q02377 1-70, looked up, NDUFA1, supernumerary subunit of respiratory complex I, Bos taurus; endogenous subunit of the purified enzyme) MWFEVLPGIAVMGVCLFIPGMATARIHRFSNGGKEKRVAHYPYQWYLMERDRRVSGVNRSYVSKGLENID | binds
NDUFA8 (natural protein, Bos taurus (bovine), UniProt P42029 1-172, looked up, NDUFA8, supernumerary subunit of respiratory complex I, Bos taurus; endogenous subunit of the purified enzyme) MPGIVELPSLEDLKVQEVKVSSSVLKAAAHHYGAQCDKPNKEFMLCRWEEKDPRRCLEEGKLVNQCALEFFRQIKRHCAEPFTEYWTCIDYSGLQLFRRCRKQQAQFDECVLDKLGWVRPDLGDLSKVTKVKTDRPLPENPYHSRARPEPNPEVEGDLKPARHGSRLFFWTM | binds
NDUFA13 (natural protein, Bos taurus (bovine), UniProt Q95KV7 1-144, looked up, NDUFA13, supernumerary subunit of respiratory complex I, Bos taurus) MAASKVKQDMPPVGGYGPIDYKRNLPRRGLSGYSMFAVGIGALLFGYWSMMKWNRERRRLQIEDFEARIALMPLLQAEKDRRVLQMLRENLEEEATVMKDVPGWKVGESVFHTTRWVTPMMGELYGLRASEEVLSATYGFIWYT | binds
ND6 (natural protein, Bos taurus (bovine), UniProt P03924 1-175, looked up, ND6, core membrane subunit of respiratory complex I, Bos taurus; endogenous subunit of the purified enzyme) MMLYIVFILSVIFVMGFVGFSSKPSPIYGGLGLIVSGGVGCGIVLNFGGSFLGLMVFLIYLGGMMVVFGYTTAMATEQYPEIWLSNKAVLGAFVTGLLMEFFMVYYVLKDKEVEVVFEFNGLGDWVIYDTGDSGFFSEEAMGIAALYSYGTWLVIVTGWSLLIGVVVIMEITRGN | binds
